# System: Escherichia coli
# assay.comment: Antibacterial activity against Escherichia coli ATCC 25922 assessed as reduction in bacterial growth by CLSI protocol based method
# Format: functional
Could you please mark Fulfilled for values of MIC below 300 µg/mL and Not fulfilled for values at or above it?

# example entries with known answers
O=c1ccc2ccc(O)c(/C=N/NS(=O)(=O)c3cccc4ccccc34)c2o1 = Fulfilled
Cc1ncc([N+](=O)[O-])n1CC(=O)N/N=C/c1c(O)ccc2ccc(=O)oc12 = Fulfilled
O=c1ccc2ccc(O)c(/C=N/NS(=O)(=O)c3ccc(Cl)cc3)c2o1 = Fulfilled

Challenge: Determine whether this compound shows MIC lower than 300 µg/mL (ties excluded): CCn1cc(C(=O)O)c(=O)c2cc(F)c(N3CCNCC3)cc21 [NORFLOXACIN]
Response given: Fulfilled

Challenge: Again, but for `O=C(N/N=C/c1c(O)ccc2ccc(=O)oc12)c1ccc(O)cc1`
Response given: Not fulfilled

Challenge: Again, but for `N/N=C/c1c(O)ccc2ccc(=O)oc12`
Response given: Fulfilled
